target: L-lactate dehydrogenase (Plasmodium falciparum (isolate CDC / Honduras)); test: PfLDH activity inhibition – cell lysate, 3D7 strain, counter-screen for P. falciparum growth inhibition project (AID 2304);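 further: 0% = vehicle and 100% = reference inhibitor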; conditions: P. falciparum 3D7 crude extract, LDH APAD/NBT absorbance; at 2 µM; hits give high values
The source made the active and inactive calls. How the calls were made is not given here.
Reported inhibition values are given for each entry in this list.

GET /value?item= Cc1nc2ccc(/C=C/C(=O)NC3CCC(CCN4CCc5ccc(C#N)cc5CC4)CC3)cc2[nH]1 (stereo unspecified) &field=inhibition returns -2% (inactive)

GET /value?item= `O=C(Nc1ccc2c(c1)CCCN2S(=O)(=O)c1cccs1)c1cc([N+](=O)[O-])ccc1Cl` &field=inhibition returns 3% (inactive)

GET /value?item= COc1ccccc1C1CCN(C2CCC(NC(=O)c3cc4ccccc4[nH]3)CC2)CC1 (stereo unspecified) &field=inhibition returns 0% (inactive)

GET /value?item= `c1ccc2[nH]c(-c3ccc(-c4ccc(CNC5CC5)cc4)s3)nc2c1` &field=inhibition returns -7% (inactive)

GET /value?item= `Cc1c(Cn2nc(Cl)c(N3CCNCC3)cc2=O)cccc1NC(=O)Nc1ccc(-c2ccccc2)cc1` &field=inhibition returns 2% (inactive)

GET /value?item= `CCNc1cc(C(=O)N[C@@H](Cc2ccccc2Cl)[C@H](O)CNC2CCCCC2)cc(N2CCCCS2(=O)=O)c1` &field=inhibition returns 0% (inactive)

GET /value?item= CC(CN1CCN(C)CC1)C(=O)Nc1ccc(-c2ccc(-c3nc4ccc(C(F)(F)F)cc4[nH]3)cc2)cc1 (stereo unspecified) &field=inhibition returns -8% (inactive)

GET /value?item= `COc1ccccc1/C=C/C(=O)NCCC1CCN(CCCCCNC(=O)/C=C/c2ccc(Cl)c(Cl)c2)CC1` &field=inhibition returns -4% (inactive)

GET /value?item= `Cc1cccc(C)c1CNc1ccnc2ccccc12` &field=inhibition returns -1% (inactive)

GET /value?item= `CN(C)CCNc1nccc(N2CCc3ncnc(Nc4ccc(OCc5cccc(F)c5)c(Cl)c4)c3C2)n1` &field=inhibition returns 6% (inactive)

Where these numbers come from: PubChem BioAssay
